Kindly state SPOT intensity for each of the entries shown.
- tested_system: T1, Boi1, P38041
- T1 sequence (P38041 1-86, looked up): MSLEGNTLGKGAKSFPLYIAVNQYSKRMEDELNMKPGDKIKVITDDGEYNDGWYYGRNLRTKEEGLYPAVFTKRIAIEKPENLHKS
- assay: SPOT array
- measurement_context: median of control spots 1162
Lab note: jot the number down without any unit.

Query string: Tell me the measured SPOT intensity of `RRSKSLPTTPGIRSG` , please.
Result string: 3

Query string: Tell me the measured SPOT intensity of `PPIPNAPLSPAPAVP` , please.
Result string: 0

Query string: Tell me the measured SPOT intensity of `DHPKGPPPPPPPDEK` , please.
Result string: 0

Query string: Tell me the measured SPOT intensity of `PPPPPPPPPPLPQSL` , please.
Result string: 0

// data source = paper PMC2756588
